Assay Details: Microsomal stability assay, human liver microsomes;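 note: pooled human liver microsomes at 0.25 mg/mL with 1 µM compound and NADPH at 37 °C, pH 7.4, for 30 min, unchanged parent quantified by LC-MS/MS against the 0 min sample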
Experimental Context: human liver microsomal data
Reported Property: HLM (µL/min/mg)

Compound | Measured
COCC(=O)N[C@@H](Cc1cc(F)cc(F)c1)[C@H](O)CN[C@@H]1CC2(CCC2)Oc2c1cc(CC(C)(C)C)nc2-c1cnc[nH]1 [compound 509] | 74
CC#Cc1cnc2c(c1)[C@@H](NC[C@@H](O)[C@H](Cc1cccc(-c3nccs3)c1)NC(=O)COC)CC1(CCC1)O2 [compound 811] | 36
C#Cc1cccc(C[C@H](NC(=O)[C@@H](C)OC)[C@H](O)CN[C@H]2CC3(CCC3)Oc3ncc(CC(C)(C)C)cc32)c1F [compound 912] | 35
COC(OC)C(=O)N[C@@H](Cc1cccc(-c2ncco2)c1)[C@H](O)CN[C@H]1CC2(CCC2)Oc2ncc(CC(C)(C)C)cc21 [Example 826] | 66
COCC(=O)N[C@@H](Cc1cccc(F)c1)[C@H](O)CN[C@H]1CC2(CCC2)Oc2c1cc(CC(C)(C)C)nc2-n1ccnc1 [Example 504] | 16
COCC(=O)N[C@@H](Cc1cc(F)cc(F)c1)[C@H](O)CN[C@H]1CC2(CCC2)Oc2c(-c3cnc[nH]3)cc(CC(C)C)cc21 [compound 480] | 272
CC[C@@H](OC)C(=O)N[C@@H](Cc1ccc(F)cc1)[C@H](O)CN[C@H]1CC2(CCC2)Oc2ncc(CC(C)(C)C)cc21 [compound 566] | 392
CC(=O)N[C@@H](C[C@H]1CCOC1)[C@H](O)CN[C@H]1CC2(CCC2)Oc2ncc(CC(C)(C)C)cc21 [compound 469] | 60
COCC(=O)N[C@@H](Cc1cccc(-c2nccs2)c1)[C@H](O)CN[C@H]1CC2(CCC2)Oc2ncc(CC(C)C)cc21 [Example 757] | 60
COCC(=O)N[C@@H](Cc1cccc(-c2nccs2)c1)[C@H](O)CN[C@@H]1C[C@@]2(CCOC2)Oc2ncc(CC(C)(C)C)cc21 [compound 827] | 97
CC(C)(C)CCC(=O)N[C@@H](Cc1ccccc1)[C@H](O)CN[C@H]1CC2(CCC2)Oc2ncc(CC(C)(C)C)cc21 [compound 819] | 736
CO[C@H](C)C(=O)N[C@@H](Cc1ccncc1)[C@H](O)CN[C@H]1CC2(CCC2)Oc2ncc(CC(C)(C)C)cc21 [compound 534] | 178
CC(C)(C)Cc1cnc2c(c1)[C@@H](NC[C@@H](O)[C@H](Cc1cccc(-c3nccs3)c1F)NC(=O)[C@@H]1CCCO1)CC1(CCC1)O2 [compound 910] | 147
CO[C@H](C)C(=O)N[C@@H](Cc1ccc2c(c1)OCO2)[C@H](O)CN[C@H]1CC2(CCC2)Oc2ncc(CC(F)(F)F)cc21 [compound 519] | 33
COCC(=O)N[C@@H](Cc1cccc(F)c1)[C@H](O)CN[C@H]1CC2(CCC2)Oc2nc3c(cc21)[C@H](C(C)C)CO3 [compound 763] | 399
CO[C@H](C)C(=O)N[C@@H](Cc1cccc(Br)c1)[C@H](O)CN[C@H]1CC2(CCC2)Oc2ncc(CC(C)C)cc21 [compound 801] | 399
CO[C@H](C)C(=O)N[C@@H](Cc1cccc(F)c1)[C@H](O)CN[C@H]1CC2(CCC2)Oc2c1cc(CC(C)(C)C)nc2-c1ccncc1 [compound 533] | 29
CC(=S)N[C@@H](Cc1cccc(-c2nccs2)c1)[C@H](O)CN[C@H]1CC2(CCC2)Oc2ncc(CC(C)(C)C)cc21 [compound 793] | 99
C#Cc1cc(F)cc(C[C@H](NC(=O)COC)[C@H](O)CN[C@H]2CC3(CCC3)Oc3ncc(CC(C)C)cc32)c1 [Example 856] | 63
CO[C@H](C)C(=O)N[C@@H](Cc1cc(F)cc(F)c1)[C@H](O)CN[C@H]1CC2(CCC2)Oc2c1cc(CC(C)(C)C)nc2-n1ccnc1 [compound 495] | 41
COCC(=O)N[C@@H](C[C@@H]1CCOC1)[C@H](O)CN[C@H]1CC2(CCC2)Oc2ncc(CC(C)(C)C)cc21 [compound 462] | 107
C#Cc1cc(C[C@H](NC(=O)CC)[C@H](O)CN[C@H]2CC3(CCC3)Oc3ncc(CC(C)(C)C)cc32)ccc1F [compound 848] | 36
COCC(=O)N[C@H](Cc1cccc(-c2nccs2)c1)[C@@H](O)CN[C@H]1CC2(CCC2)Oc2ncc(C3CCCC3)cc21 [compound 810] | 274
CC#Cc1cnc2c(c1)[C@@H](NC[C@@H](O)[C@H](Cc1cccc(Br)c1)NC(=O)COC)CC1(CCC1)O2 [compound 812] | 260
CC(=O)N[C@@H](Cc1ccc(F)cc1)[C@H](O)CN[C@H]1CC2(CCC2)Oc2ncc(C(F)(F)C(C)(C)C)cc21 [compound 570] | 101
